Origin of the recorded values: BigSolDB 2.1

Settings: in methanol, 278.1 K
recorded metric: solubility (mole fraction)
The reply should be a number, written without any unit.

Record summary for Clc1cc(Cl)c(OCCBr)c(Cl)c1 : reported solubility (mole fraction) = 0.00356

###

Conditions: in acetonitrile, 293.1 K
recorded metric: solubility (mole fraction)
The reply should be a number, written without any unit.

Record summary for Clc1cc(Cl)c(OCCBr)c(Cl)c1 : reported solubility (mole fraction) = 0.0253

###

Settings: in acetonitrile, 323.2 K
recorded metric: solubility (mole fraction)
The reply should be a number, written without any unit.

Record summary for Clc1cc(Cl)c(OCCBr)c(Cl)c1 : reported solubility (mole fraction) = 0.076

###

Conditions: in isopropanol, 293.1 K
recorded metric: solubility (mole fraction)
The reply should be a number, written without any unit.

Record summary for Clc1cc(Cl)c(OCCBr)c(Cl)c1 : reported solubility (mole fraction) = 0.0099

###

Details: in n-propanol, 318.1 K
recorded metric: solubility (mole fraction)
The reply should be a number, written without any unit.

Record summary for Clc1cc(Cl)c(OCCBr)c(Cl)c1 : reported solubility (mole fraction) = 0.0174

###

Conditions: in acetone, 288.1 K
recorded metric: solubility (mole fraction)
The reply should be a number, written without any unit.

Record summary for Clc1cc(Cl)c(OCCBr)c(Cl)c1 : reported solubility (mole fraction) = 0.117

###

Conditions: in n-heptane, 283.1 K
recorded metric: solubility (mole fraction)

Record summary for Clc1cc(Cl)c(OCCBr)c(Cl)c1 : reported solubility (mole fraction) = 0.047

###

Settings: in ethanol, 293.1 K
recorded metric: solubility (mole fraction)
The reply should be a number, written without any unit.

Record summary for Clc1cc(Cl)c(OCCBr)c(Cl)c1 : reported solubility (mole fraction) = 0.00968

###

Settings: in methanol, 293.2 K
recorded metric: solubility (mole fraction)

Record summary for Clc1cc(Cl)c(OCCBr)c(Cl)c1 : reported solubility (mole fraction) = 0.0071

###

Settings: in acetonitrile, 303.1 K
recorded metric: solubility (mole fraction)
The reply should be a number, written without any unit.

Record summary for Clc1cc(Cl)c(OCCBr)c(Cl)c1 : reported solubility (mole fraction) = 0.0364

###

Conditions: in acetone, 313.1 K
recorded metric: solubility (mole fraction)
The reply should be a number, written without any unit.

Record summary for Clc1cc(Cl)c(OCCBr)c(Cl)c1 : reported solubility (mole fraction) = 0.203

###

Details: in isopropanol, 303.2 K
recorded metric: solubility (mole fraction)
The reply should be a number, written without any unit.

Record summary for Clc1cc(Cl)c(OCCBr)c(Cl)c1 : reported solubility (mole fraction) = 0.0142

###

Conditions: in methanol, 308.1 K
recorded metric: solubility (mole fraction)

Record summary for Clc1cc(Cl)c(OCCBr)c(Cl)c1 : reported solubility (mole fraction) = 0.0141

###

Settings: in acetonitrile, 288.2 K
recorded metric: solubility (mole fraction)
The reply should be a number, written without any unit.

Record summary for Clc1cc(Cl)c(OCCBr)c(Cl)c1 : reported solubility (mole fraction) = 0.0211

###

Settings: in ethanol, 318.1 K
recorded metric: solubility (mole fraction)
The reply should be a number, written without any unit.

Record summary for Clc1cc(Cl)c(OCCBr)c(Cl)c1 : reported solubility (mole fraction) = 0.0166

###

Details: in methanol, 288.1 K
recorded metric: solubility (mole fraction)
The reply should be a number, written without any unit.

Record summary for Clc1cc(Cl)c(OCCBr)c(Cl)c1 : reported solubility (mole fraction) = 0.00563
